Tested on: OVCAR-5 complex spheroids, viability
Method summary: Anticancer human tumor OVCAR-5 cell line growth inhibition;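 also: spheroids exposed to agents for seven days; 100% = DMSO vehicle control wells viability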
Condition notes: second compound 10 µM; first compound 1 µM; active compounds read low
Measured endpoint: viability, T/C (%)
Provide only the numeric value, understood in %.

Nc1ncn(C2CC(O)C(CO)O2)c(=O)n1 (configuration not stated) + NC1CCC(NC2CC2c2ccccc2)CC1 yielded viability, T/C of 66

CC1COCCN1c1cc(C2(S(C)(=N)=O)CC2)nc(-c2ccnc3[nH]ccc23)n1 (configuration not stated) + NC1CC1c1ccc(-c2cccc(O)c2)cc1 yielded viability, T/C of 42.3

O=C(c1cc(Cc2n[nH]c(=O)c3ccccc23)ccc1F)N1CCN(C(=O)C2CC2)CC1 + NC1CCC(NC2CC2c2ccccc2)CC1 yielded viability, T/C of 83.2

CC1(C)CCC(CN2CCN(c3ccc(C(=O)NS(=O)(=O)c4ccc(NCC5CCOCC5)c([N+](=O)[O-])c4)c(Oc4cnc5[nH]ccc5c4)c3)CC2)=C(c2ccc(Cl)cc2)C1 + NC1CCC(NC2CC2c2ccccc2)CC1 yielded viability, T/C of 91.7

CC1COCCN1c1cc(C2(S(C)(=N)=O)CC2)nc(-c2ccnc3[nH]ccc23)n1 (configuration not stated) + NC1CCC(NC2CC2c2ccccc2)CC1 yielded viability, T/C of 61.3

Nc1ncn(C2CC(O)C(CO)O2)c(=O)n1 (configuration not stated) + NC1CC1c1ccc(-c2cccc(O)c2)cc1 yielded viability, T/C of 61.2

CC1COCCN1c1cc(-c2ccnn2C)c2ccnc(-c3ccn[nH]3)c2n1 (configuration not stated) + NC1CCC(NC2CC2c2ccccc2)CC1 yielded viability, T/C of 33.3
